assay: chemical genetic growth profiling, strain panel (AID 1159580);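 also: tested at 20 µM; growth read once vehicle control cultures reached saturation at 30 °C; lower values mean less growth of the strain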; details: S. cerevisiae deletion strains, growth OD, locus YAL040C, strain CLN3
Screen size: about 5,500 compounds; about 2,000 (36%) were called active. Roughly 18% stayed inconclusive and do not appear here. Rule as the data show it: active = normalized growth mostly below about 0.91 (no sharp cut-off); inconclusive = no clear call, values can overlap the other calls; inactive = mostly above about 0.92. Some of the results follow.
Form entry, call: pick from active, inactive

- CN=C(N)NCCC[C@H](N)C(=O)O: inactive
- CCCN(CCC)C1CCc2ccc(O)cc2C1 (stereo not given): inactive
- CNCCNS(=O)(=O)c1cccc2cnccc12: inactive
- O=c1ccc2ccc(O)c(O)c2o1: inactive
- O=C(O)CC[C@@H](C(=O)O)N1C(=O)c2ccccc2C1=O: inactive
- COC1(C2=NCCN2)COc2ccccc2O1 (stereo not given): inactive

I would be grateful if you could indicate the recorded call for CCCN(CCC)[C@@H]1CCc2cccc(O)c2C1 . inactive

I would be grateful if you could indicate the recorded call for C[C@]12CC[C@@H](O)CC1CC[C@@H]1[C@@H]2CC[C@]2(C)C(=O)CC[C@@H]12 (stereo not given in full) . inactive

I would be grateful if you could indicate the recorded call for CSc1nc(N)c2ncn([C@@H]3O[C@H](COP(=O)(O)OP(=O)(O)O)[C@H](O)C3O)c2n1 (stereo not given in full) . inactive

I would be grateful if you could indicate the recorded call for CC(=O)O[C@H]1C[C@@H]2CC[C@@H]3[C@H](CC[C@@]4(C)[C@H]3C[C@H]([N+]3(C)CCCCC3)[C@@H]4OC(C)=O)[C@@]2(C)C[C@@H]1[N+]1(C)CCCCC1 . inactive

I would be grateful if you could indicate the recorded call for Cc1c2ccncc2c(C)c2c1[nH]c1ccccc12 . active

I would be grateful if you could indicate the recorded call for C[N+](C)(C)CC#CCN1CCCC1=O . inactive

I would be grateful if you could indicate the recorded call for O=C(OC1CCN(CCCl)CC1)C(c1ccccc1)c1ccccc1 . inactive

I would be grateful if you could indicate the recorded call for CC(=O)SC1CC2=CC(=O)CC[C@]2(C)C2CC[C@@]3(C)C(CC[C@@]34CCC(=O)O4)C12 (stereo not given in full) . inactive

I would be grateful if you could indicate the recorded call for NCCNC(=O)c1ncsc1-c1cccc(F)c1 . inactive

I would be grateful if you could indicate the recorded call for O=c1n(CCCN2CCN(c3cccc(Cl)c3)CC2)nc2ccccn12 . inactive

I would be grateful if you could indicate the recorded call for CCOC(=O)c1ncn2c1[C@@H]1CCCN1C(=O)c1cc(OC)ccc1-2 . inactive

Hello, the source for this data is PubChem BioAssay AID1159580, in case you need it.
